Test system: PC-3 prostate
experimentalProtocol: NCI tumour cell line growth inhibition, 48 h
readoutLabel: GI50

{"columns": ["structureAsSmiles", "GI50"],
 "data": [
  ["Cc1cc(=O)n2[nH]c(-c3ccc(C(C)(C)C)cc3)cc2n1", "4.13 µM"],
  ["O=C(CN1CCN(c2cc3c(cc2F)c(=O)c(C(=O)N/N=C/c2ccccc2O)cn3C2CC2)CC1)N/N=C\\c1ccccc1O", "0.531 µM"],
  ["O=C1/C(=C/c2ccc([N+](=O)[O-])cc2)COc2ccc(O)c(O)c21", "1.59 µM"],
  ["COc1cc(C(=O)/C=C/c2sc(Cl)nc2Cl)cc(OC)c1OC", "1.8 µM"],
  ["O=C1c2cccnc2-c2nc(-c3ccccc3[N+](=O)[O-])cc3c2c1nc1ccccc13", "19.5 µM"]
]}

Would you be so kind as to report GI50 for each listed record?
1. Cc1cc2nc(C(Cl)Cl)nc(-c3ccc(Cl)cc3)n2n1
2. C[C@@H](CS(C)(=O)=O)Nc1ncc2cc(Oc3ccc(F)cc3F)c(=O)n(C)c2n1
3. O=C(CCl)N1c2ccccc2Oc2ccc3ccccc3c21
4. O=C1NNC(=O)c2ccccc2SSc2ccccc2C(=O)NNC(=O)c2ccccc2SSc2ccccc21
5. CCc1ccc2c(c1)C(=O)c1c-2n(CCCBr)c(=O)c2cc([N+](=O)[O-])ccc12
6. Cn1ccnc1C(=O)/C=C/c1ccc(CC(=O)Nc2ccc(Br)cc2)cc1
7. COc1cc2nc(-c3ccc(C(F)(F)F)cc3)cc(OCCCN3CCC(O)CC3)c2cc1OC

1.33 µM
> 25 µM
1.72 µM
24.7 µM
> 50 µM
2.87 µM
3.66 µM

Please list GI50 recorded for the compound COc1ccc(C2=CSc3cc(Cl)c(C)cc3S(=O)(=O)N2C(C)=O)cc1 21.8 µM
